- tested_target: SIRT1 (Homo sapiens, UniProt Q96EB6)
- Sequence (Q96EB6 whole entry): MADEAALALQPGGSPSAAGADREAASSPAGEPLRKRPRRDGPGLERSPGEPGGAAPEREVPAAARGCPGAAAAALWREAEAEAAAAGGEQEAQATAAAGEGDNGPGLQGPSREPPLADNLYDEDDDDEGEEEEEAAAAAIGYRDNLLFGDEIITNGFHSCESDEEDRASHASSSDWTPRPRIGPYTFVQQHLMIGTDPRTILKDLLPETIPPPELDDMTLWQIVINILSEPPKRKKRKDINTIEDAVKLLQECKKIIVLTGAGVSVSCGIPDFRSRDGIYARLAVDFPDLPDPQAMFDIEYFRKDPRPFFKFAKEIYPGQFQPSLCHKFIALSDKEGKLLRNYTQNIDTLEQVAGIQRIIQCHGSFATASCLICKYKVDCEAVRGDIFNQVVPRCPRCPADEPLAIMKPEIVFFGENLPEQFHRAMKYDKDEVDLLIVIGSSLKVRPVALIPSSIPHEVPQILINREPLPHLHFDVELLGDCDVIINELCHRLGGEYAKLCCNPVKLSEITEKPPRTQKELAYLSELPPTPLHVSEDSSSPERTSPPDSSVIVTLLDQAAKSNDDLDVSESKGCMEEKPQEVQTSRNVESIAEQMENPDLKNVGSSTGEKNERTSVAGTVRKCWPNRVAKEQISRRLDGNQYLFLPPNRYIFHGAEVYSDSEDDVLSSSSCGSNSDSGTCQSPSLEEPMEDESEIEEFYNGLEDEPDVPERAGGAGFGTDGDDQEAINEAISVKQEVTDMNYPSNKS
- protocol_notes: Trp mass spectrometry assay of SIRT1 activity
- Format: biochemical
- protocol_conditions: Trp assay; concentration giving 150% activation of SIRT1
parameter: Trp EC1.5 (μM)

Before answering, review these 5 worked examples.
[
  {
    "mol": "O=C(Nc1ncc(F)cc1F)c1cnn2ccc(-c3ccccc3C(F)(F)F)nc12",
    "Trp EC1.5 (μM)": "B (EC1.5 1-25 μM)"
  },
  {
    "mol": "CCOc1nccc(NC(=O)c2cnc3ccc(-c4ccccc4C(F)(F)F)nn23)n1",
    "Trp EC1.5 (μM)": "A (EC1.5<1 μM)"
  },
  {
    "mol": "O=C(Nc1cnc2ccc(-c3ccccc3C(F)(F)F)nn12)c1cnc(O)cn1",
    "Trp EC1.5 (μM)": "B (EC1.5 1-25 μM)"
  },
  {
    "mol": "O=C(Nc1ccncc1F)c1cnc2ccc(N3CC[C@H](F)C3)nn12",
    "Trp EC1.5 (μM)": "B (EC1.5 1-25 μM)"
  },
  {
    "mol": "Cc1cc(NC(=O)c2cnc3ccc(-c4ccccc4F)nn23)cc(C)n1",
    "Trp EC1.5 (μM)": "B (EC1.5 1-25 μM)"
  }
]

Exercise: Item: Cc1nc2ccc(-c3ccccc3OC[C@H](O)CO)nn2c1C(=O)Nc1ccccn1 Test system: SIRT1 (Homo sapiens, UniProt Q96EB6) Read-out: Trp EC1.5 (μM) Value: ?
Solution: A (EC1.5<1 μM)

Exercise: Request: Trp EC1.5 (μM), test system SIRT1 (Homo sapiens, UniProt Q96EB6), entry O=C(Nc1cnccn1)c1cnn2ccc(-c3ccccc3C(F)(F)F)nc12
Solution: B (EC1.5 1-25 μM)

Exercise: Request: Trp EC1.5 (μM), test system SIRT1 (Homo sapiens, UniProt Q96EB6), entry Cc1cc(NC(=O)c2cnc3ccc(-c4ccccc4Cl)nn23)cc(C)n1
Solution: B (EC1.5 1-25 μM)

Each recorded value in this set is attributed to patent US9957271B2.
